- STUDY SYSTEM: T1, recombinant human TIGIT (human, UniProt Q495A1 22-141, limits assumed)
- T1 construct: recombinant human TIGIT used in Carterra SPR; also called hTIGIT
- T1 sequence (looked up): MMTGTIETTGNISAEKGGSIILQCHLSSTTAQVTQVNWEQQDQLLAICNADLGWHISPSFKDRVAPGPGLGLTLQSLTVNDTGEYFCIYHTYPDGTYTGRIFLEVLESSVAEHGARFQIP
- ASSAY INFO: SPR Carterra, average
Respond with 1 for koff values of 0.003 s⁻¹ and above, 0 for values below.

BINDER | LABEL VALUE
TIGIT-SC122 (Fc fusion, VHH-Fc fusion in assay) VHH: EVQLVESGGGLVQPGGSLRLSCAASGFSFDDYVMGWFRQAPGKEREFVAAISMSGGYTHYADSVKGRFTISADNSKNTAYLQMNSLKPEDTAVYYCAREGYYGSGSYLVYWGQGTLVTVSS | 0
TIGIT-SC72 (Fc fusion, VHH-Fc fusion in assay) VHH: EVQLVESGGGLVQPGGSLRLSCAASGGLTFSSYAMGWFRQAPGKEREFVAAISWSGGRTYYADSVKGRFTISADNSKNTAYLQMNSLKPEDTAVYYCARWSAKRHSDTMTYYMDVWGQGTLVTVSS | 0
TIGIT-SC164 (Fc fusion, VHH-Fc fusion in assay) VHH: EVQLVESGGGLVQPGGSLRLSCAASGFTFDRSWMGWFRQAPGKEREFVASVLRGGYTWYADSVKGRFTISADNSKNTAYLQMNSLKPEDTAVYYCTTEGSGWRNWGQGTLVTVSS | 0

Quick check: does TIGIT-SC123 (Fc fusion, VHH-Fc fusion in assay) VHH: EVQLVESGGGLVQPGGSLRLSCAASGSIFSGNTMGWFRQAPGKEREFVAAISWSGAYTEYADSVKGRFTISADNSKNTAYLQMNSLKPEDTAVYYCAREGYYGSGSYLVYWGQGTLVTVSS have koff greater than or equal to 0.003 s⁻¹? 0

Quick check: does TIGIT-SC64 (Fc fusion, VHH-Fc fusion in assay) VHH: EVQLVESGGGLVQPGGSLRLSCAASGFAFSNFGMGWFRQAPGKERELVSAIGWSGASTYYADSVKGRFTISADNSKNTAYLQMNSLKPEDTAVYYCARRGRTIPFDYWGQGTLVTVSS have koff greater than or equal to 0.003 s⁻¹? 1

Quick check: does TIGIT-SC51 (Fc fusion, VHH-Fc fusion in assay) VHH: EVQLVESGGGLVQPGGSLRLSCAASGRTEANYAMGWFRQAPGKEREFVAAISWDGGATAYADSVKGRFTISADNSKNTAYLQMNSLKPEDTAVYYCGDYEGHWGQGTLVTVSS have koff greater than or equal to 0.003 s⁻¹? 1

Quick check: does TIGIT-SC119 (Fc fusion, VHH-Fc fusion in assay) VHH: EVQLVESGGGLVQPGGSLRLSCAASGNTFSGGFMGWFRQAPGKEREWVASVLRGGYTWYADSVKGRFTISADNSKNTAYLQMNSLKPEDTAVYYCAKDGGWFDPWGQGTLVTVSS have koff greater than or equal to 0.003 s⁻¹? 1

Quick check: does TIGIT-SC177 (Fc fusion, VHH-Fc fusion in assay) VHH: EVQLVESGGGLVQPGGSLRLSCAASGFTFSPSWMGWFRQAPGKEREWVASVLRGGYTWYADSVKGRFTISADNSKNTAYLQMNSLKPEDTAVYYCATDRGPAMVFNLWGQGTLVTVSS have koff greater than or equal to 0.003 s⁻¹? 0
